- Test system: Enterococcus faecium
- Assay Details: Antimicrobial activity against vancomycin-resistant Enterococcus faecium
- Type: functional
Can you tell me MIC for the items I'm about to list?

{"Molecule": "C/C(NCCOc1ccccc1)=C1/C(=O)[C@@H]2CO[C@@H](C(C)(C)C)N2C1=O", "MIC": "> 32 µg/mL"}
{"Molecule": "CCOC(=O)[C@]12CO[C@H](C(C)(C)C)N1C(=O)/C(=C(\\C)NCCOc1ccccc1)C2=O", "MIC": "8 µg/mL"}
{"Molecule": "CCOC(=O)[C@]12CO[C@H](C(C)(C)C)N1C(=O)/C(=C(\\C)NCCCN1CCOCC1)C2=O", "MIC": "> 32 µg/mL"}
{"Molecule": "CCCC(=O)N1CC(=O)/C(=C(\\CCCCc2ccccc2)NC2CC(C)(C)N(C)C(C)(C)C2)C1=O", "MIC": "> 32 µg/mL"}
{"Molecule": "COC(=O)[C@@]12CO[C@@H](C(C)(C)C)N1C(=O)/C(=C(\\C)NC13CC4CC(CC(C4)C1)C3)C2=O", "MIC": "> 64 µg/mL"}
{"Molecule": "CCCCCCCCCCCCC/C(NCCCNC(=O)COCC(=O)O)=C1\\C(=O)CN(CCCCCC)C1=O", "MIC": "16 µg/mL"}
{"Molecule": "CCCCCCCCCCC/C(NCCCOC(C)C)=C1\\C(=O)CNC1=O", "MIC": "8 µg/mL"}
{"Molecule": "CCCCCCCCCC/C(NCCCOC(C)C)=C1\\C(=O)C(CCSC)N(C(C)=O)C1=O (stereo not given)", "MIC": "> 32 µg/mL"}

Dear reader, for each entry below, please note its MIC.
1. CCCCCCCCCCCCC/C(Nc1ccccc1)=C1\C(=O)CNC1=O
2. CCCCCCC(=O)N1CC(=O)/C(=C(\CCCOc2ccccc2)NCCCOC(C)C)C1=O

Found:
1. > 32 µg/mL
2. > 32 µg/mL

Dear reader, for each entry below, please note its MIC.
1. CC1CCCCN1CCCN/C(CC12CC3CC(C)(CC(C)(C3)C1)C2)=C1/C(=O)[C@@H]2CCCC(=O)N2C1=O (stereo not given in full)
2. CSCCC1C(=O)/C(=C(\CC23CC4CC(C)(CC(C)(C4)C2)C3)NCC(C)(C)CN(C)C)C(=O)N1C(C)=O (stereo not given)
3. CCOC(=O)[C@]12CO[C@H](C(C)(C)C)N1C(=O)/C(=C(/CC13CC4CC(CC(C4)C1)C3)NC(C)CCCN(CC)CC)C2=O (stereo not given in full)
4. C/C(NCCOc1ccccc1)=C1/C(=O)[C@@H]2CCCC(=O)N2C1=O
5. CCCCCC/C(=C1/C(=O)N2[C@@H](C(C)(C)C)OC[C@]2(C(=O)OC)C1=O)N1CCCCC1

Found:
["> 32 µg/mL", "> 64 µg/mL", "32 µg/mL", "> 32 µg/mL", "> 32 µg/mL"]

---

- System: Haemophilus influenzae
- Assay Details: Antimicrobial activity against LS2 Efflux knock-out Haemophilus influenzae
- Format: functional
Can you tell me MIC for the items I'm about to list?

{"Compound": "CCOC(=O)[C@]12CO[C@H](C(C)(C)C)N1C(=O)/C(=C(/CC13CC4CC(C)(CC(C)(C4)C1)C3)NC(C)CCCN(CC)CC)C2=O (some centres not stated)", "MIC": "> 32 µg/mL"}
{"Compound": "O=C(O)c1cn(C2CC2)c2cc(N3CCNCC3)c(F)cc2c1=O", "MIC": "≤ 0.06 µg/mL"}
{"Compound": "CCCC(=O)N1CC(=O)/C(=C(\\CC23CC4CC(CC(C4)C2)C3)NCCCN2CCCCC2C)C1=O (configuration not stated)", "MIC": "32 µg/mL"}
{"Compound": "CCCCCCCCCCCCC/C(NCCCN)=C1\\C(=O)CN(CCCCCC)C1=O", "MIC": "32 µg/mL"}
{"Compound": "C/C(NCCOc1ccccc1Cl)=C1/C(=O)CN(C(=O)OC(C)(C)C)C1=O", "MIC": "32 µg/mL"}
{"Compound": "CCCCCCN1CC(=O)/C(=C(/NC2CCCCC2)C2CCCCC2)C1=O", "MIC": "> 64 µg/mL"}

Dear reader, for each entry below, please note its MIC.
1. CCCCCCCCCCC/C(NCCCOC(C)C)=C1/C(=O)N[C@@H](CCCC(=O)NCCCOC(C)C)C1=O
2. CCCCCCC(=O)N1CC(=O)/C(=C(\CCCCCC)NC2CCCCC2)C1=O
3. O=C1CNC(=O)/C1=C(\NCc1ccccc1)c1cccc2ccccc12
4. CCOC(=O)[C@]12CO[C@H](C(C)(C)C)N1C(=O)/C(=C(\C)NCCOc1ccccc1)C2=O
5. COC(=O)[C@@]12CO[C@@H](C(C)(C)C)N1C(=O)/C(=C(\C)NC13CC4CC(CC(C4)C1)C3)C2=O
6. C/C(NCCOc1ccccc1Cl)=C1/C(=O)CNC1=O
7. CCOC(=O)[C@]12CO[C@H](C(C)(C)C)N1C(=O)/C(=C(/CC13CC4CC(CC(C4)C1)C3)NCCCN1CCOCC1)C2=O

Found:
8 µg/mL
> 32 µg/mL
> 32 µg/mL
32 µg/mL
16 µg/mL
> 32 µg/mL
8 µg/mL

---

- Test system: Streptococcus pneumoniae
- Assay Details: Antimicrobial activity against penicillin- and erythromycin-resistant Streptococcus pneumoniae
- Format: functional
Can you tell me MIC for the items I'm about to list?

Previously resolved entries follow.
{"Compound": "CCCCCC/C(=C1/C(=O)N2[C@@H](C(C)(C)C)OC[C@]2(C(=O)OC)C1=O)N1CCCCC1", "Result": "> 32 µg/mL"}
{"Compound": "O=C1CNC(=O)/C1=C(\\NCc1ccccc1)c1cccc2ccccc12", "Result": "> 32 µg/mL"}

Let us move to another entry and its MIC.
Lookup: Kindly state the measured MIC obtained for CCCCCCC/C=C/C(=O)N1C(=O)/C(=C(\C)Nc2ccc(N3CCOCC3)cc2)C(=O)C1CC(C)C (stereo not drawn) with Streptococcus pneumoniae.
Found: > 32 µg/mL

---

- Tested on: Haemophilus influenzae
- Assay Details: Antimicrobial activity against Haemophilus influenzae ATCC 31517 MMSA
- Type: functional
Measured Quantity: MIC

{"Compound": "CCCCCC/C(Nc1ccc(N2CCOCC2)cc1)=C1\\C(=O)CNC1=O", "Experimental System": "Haemophilus influenzae", "MIC": "> 32 µg/mL"}
{"Compound": "CCN(CC)CCCC(C)N/C(CCCOc1ccccc1)=C1/C(=O)C(CC(C)C)N(C(=O)c2ccccc2)C1=O (stereo not given)", "Experimental System": "Haemophilus influenzae", "MIC": "> 32 µg/mL"}
{"Compound": "COC(=O)[C@@]12CO[C@@H](C(C)(C)C)N1C(=O)/C(=C(\\C)Nc1ccccc1)C2=O", "Experimental System": "Haemophilus influenzae", "MIC": "> 32 µg/mL"}
{"Compound": "COCCOC(=O)[C@]12CO[C@H](C(C)(C)C)N1C(=O)/C(=C(\\C)NCCOc1ccccc1)C2=O", "Experimental System": "Haemophilus influenzae", "MIC": "> 32 µg/mL"}

Let us move to another entry and its MIC.
Lookup: So what's the measured MIC for this one? O=C(O)c1cn(C2CC2)c2cc(N3CCNCC3)c(F)cc2c1=O
Found: 0.5 µg/mL

---

- Tested on: Haemophilus influenzae
- Assay Details: Antimicrobial activity against LS2 Efflux knock-out Haemophilus influenzae
- Type: functional
Measured Quantity: MIC

{"Molecule": "CCOC(=O)[C@]12CO[C@H](C(C)(C)C)N1C(=O)/C(=C(\\C)NCc1cccc(CN3CCC(C)CC3)c1)C2=O", "Experimental System": "Haemophilus influenzae", "MIC": "> 32 µg/mL"}
{"Molecule": "CCOC(=O)[C@]12CO[C@H](C(C)(C)C)N1C(=O)/C(=C(/CC13CC4CC(CC(C4)C1)C3)NC(C)CCCN(CC)CC)C2=O (some centres undefined)", "Experimental System": "Haemophilus influenzae", "MIC": "16 µg/mL"}
{"Molecule": "CCCCCCC(=O)N1CC(=O)/C(=C(\\CCCOc2ccccc2)NCCCOC(C)C)C1=O", "Experimental System": "Haemophilus influenzae", "MIC": "> 32 µg/mL"}

Let us move to another entry and its MIC.
Lookup: So what's the measured MIC for this one? CCCCCCCCCC/C(NCCCOC(C)C)=C1\C(=O)C(CCSC)N(C(C)=O)C1=O (centres undefined)
Found: > 32 µg/mL
